This collection of values is drawn from paper PMC9814657.

targetSystem: epidermal growth factor receptor (EGFR) (Homo sapiens)
Sequence (P00533 25-1210): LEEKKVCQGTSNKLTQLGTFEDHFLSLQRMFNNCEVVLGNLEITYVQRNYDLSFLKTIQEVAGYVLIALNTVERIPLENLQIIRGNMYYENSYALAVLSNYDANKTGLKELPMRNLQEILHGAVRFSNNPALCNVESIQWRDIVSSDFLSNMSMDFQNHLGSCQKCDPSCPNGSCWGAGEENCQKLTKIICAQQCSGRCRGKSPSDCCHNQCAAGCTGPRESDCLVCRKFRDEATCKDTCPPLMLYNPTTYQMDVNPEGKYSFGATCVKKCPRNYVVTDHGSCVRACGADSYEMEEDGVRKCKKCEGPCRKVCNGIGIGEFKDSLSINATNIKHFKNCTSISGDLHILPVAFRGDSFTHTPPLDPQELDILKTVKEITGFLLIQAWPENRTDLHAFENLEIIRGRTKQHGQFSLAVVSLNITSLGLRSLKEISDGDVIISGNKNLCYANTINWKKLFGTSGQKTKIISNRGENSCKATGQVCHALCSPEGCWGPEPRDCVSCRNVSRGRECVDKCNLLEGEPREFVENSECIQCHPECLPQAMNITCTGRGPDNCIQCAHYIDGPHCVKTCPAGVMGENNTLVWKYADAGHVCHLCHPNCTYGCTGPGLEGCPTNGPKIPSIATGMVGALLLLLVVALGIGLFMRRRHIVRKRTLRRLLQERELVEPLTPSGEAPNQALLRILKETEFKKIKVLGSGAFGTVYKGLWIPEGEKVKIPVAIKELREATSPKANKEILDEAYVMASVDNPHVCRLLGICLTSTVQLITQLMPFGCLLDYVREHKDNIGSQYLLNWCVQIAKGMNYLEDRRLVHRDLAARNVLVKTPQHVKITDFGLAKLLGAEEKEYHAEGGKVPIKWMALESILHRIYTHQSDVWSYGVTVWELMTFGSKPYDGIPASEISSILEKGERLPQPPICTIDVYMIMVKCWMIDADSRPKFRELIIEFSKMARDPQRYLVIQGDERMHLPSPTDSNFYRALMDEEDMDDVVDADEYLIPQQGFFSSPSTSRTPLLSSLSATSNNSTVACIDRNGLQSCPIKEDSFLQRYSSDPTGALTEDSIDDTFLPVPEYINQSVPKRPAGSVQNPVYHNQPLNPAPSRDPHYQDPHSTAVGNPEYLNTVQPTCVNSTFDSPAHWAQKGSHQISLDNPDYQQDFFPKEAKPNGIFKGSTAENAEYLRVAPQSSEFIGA
methodSummary: biochemical
Parameters: 33P radiometric HotSpot filter-binding EGFR kinase assay, 10 uM ATP, Reaction Biology
assaySetup: 10 uM ATP
attributeMeasured: inhibition at 1 µM (%)

smiles: CN(C)C1CCN(c2ccc(Nc3ncnc4c(F)cccc34)cc2)CC1
targetSystem: epidermal growth factor receptor (EGFR) (Homo sapiens)
inhibition at 1 µM / %: 12

(A) Fc1ccc(Nc2ncnc3ccc(Br)cc23)cc1
(B) COCCOc1ccc(Nc2ncnc3c(F)cccc23)cc1Cl
## Input Lab note: record which item had the higher inhibition at 1 µM, A or B . Give the label under which the chosen entry appears.
## Output A
(A: 96%, B: 16%)
